- assay_method_text: Zeta potential and hydrodynamic diameter of formulated NPs by dynamic light scattering
- Type: physicochemical
- recorded_conditions: NPs containing PNA/donor DNA, PBS buffer, n = 3
[PNA-N] = peptide nucleic acid monomer (N: the base)
Would you mind telling me the reported Zeta Potential of each entry?
One number for each entry, in mV.

# count of solved cases: 3
{"columns": ["substance", "measurement_unit", "Zeta Potential"],
 "data": [
  ["H-KKK-TJTJJTTT-OOO-TTTCCTCTATGGGTAAG-KKK-NH2 [hCF PNA] (TNTNNTTTTTTCCTCTATGGGTAAG; listed as DNA, chemistry not fully specified)", "mV", 14.2],
  ["H-KKK-JTTTTJJJ-OOO-CCCTTTTCAAGGTGAGTAG-KKK-NH2 [γmCF PNA-h] (NTTTTNNNCCCTTTTCAAGGTGAGTAG; all [PNA-N], the base at N not given here; lysine tripeptides at both ends, OOO linker, some gamma-modified PNA monomers, further chemistry not fully specified) [tail clamp PNA targeting mouse CFTR gene with MPγ monomers in Hoogsteen domain]", "mV", 36.17],
  ["H-KKK-TJTJJTTT-OOO-TTTCCTCTATGGGTAAG-KKK-NH2 [γhCF PNA-h] (TNTNNTTTTTTCCTCTATGGGTAAG; listed as DNA, chemistry not fully specified) [tail clamp PNA targeting human CFTR gene with MPγ monomers in Hoogsteen domain]", "mV", 13.3]
]}

Consider the record given below.
**Q:** Requested field: Zeta Potential. Item: H-KKK-JTTTTJJJ-OOO-CCCTTTTCAAGGTGAGTAG-KKK-NH2 [mCF PNA] (NTTTTNNNCCCTTTTCAAGGTGAGTAG; listed as DNA, chemistry not fully specified)
**A:** 46.17
